PROTOCOL NOTES: Metabolic stability in human hepatic microsome
Format: in vitro ADME
DETAILS: microsomes, pH 7.4; human hepatic microsome, NADPH(+); read-out: CL NADPH(+)
Starred links: 1 amine or outer side, 2 acyl side, 3 side chain; linkers in the order of their positions; H or OH if unused. Positions of bridges follow the written chain, without caps; N, C: chain ends. Non-standard residues stand in square brackets, D forms with d. Residues, ends and D or L forms follow the SMILES beside them. *: point of attachment. Phe(4-(CH2)5CO) = O=C([C@H](Cc1ccc(CCCCCC(=O)[*:3])cc1)N[*:1])[*:2]; hhPhe = N[C@@H](CCCc1ccccc1)C(=O)O; NMeF = CN[C@@H](Cc1ccccc1)C(=O)O; NMeI = CC[C@H](C)[C@H](NC)C(=O)O; NMeL = CN[C@@H](CC(C)C)C(=O)O; NMeV = CN[C@H](C(=O)O)C(C)C; NMeA = CN[C@@H](C)C(=O)O; Piperidide = C1CCN(*)CC1; Sar = CNCC(=O)O; tBu = CC(C)(C)*
Parameter microsomal CLint at 1 uM: see the listing below.
MEASURED QUANTITY: microsomal CLint at 1 uM (µL/min/mg)

COMPOUND	MEASURED QUANTITY	EXPERIMENTAL VALUE
CC[C@H](C)[C@H]1C(=O)N[C@@H]([C@@H](C)O)C(=O)N(C)CC(=O)N(C)[C@@H](CC(C)C)C(=O)N[C@H](C(=O)N2CCCCC2)Cc2ccc(cc2)CCCCCC(=O)N[C@@H](CC(C)C)C(=O)N(C)[C@@H](CC(C)C)C(=O)N(C)[C@@H](Cc2ccccc2)C(=O)N[C@@H](C)C(=O)N(C)[C@@H](Cc2ccccc2)C(=O)N1C [DP-856] (L[NMeL][NMeF]A[NMeF][NMeI]T[Sar][NMeL][Phe(4-(CH2)5CO)]-Piperidide; lactam N-10)	microsomal CLint at 1 uM	183
CC(C)C[C@H]1C(=O)N[C@@H](COC(C)(C)C)C(=O)N[C@H](C(=O)N2CCCCC2)CC(=O)N(C)[C@@H](C)C(=O)N(C)[C@@H](Cc2ccccc2)C(=O)N(C)[C@@H](CC(C)C)C(=O)N[C@@H]([C@@H](C)O)C(=O)N(C)CC(=O)N1C [DP-523] ([NMeA][NMeF][NMeL]T[Sar][NMeL]S(tBu)D-Piperidide; lactam N-8)	microsomal CLint at 1 uM	99
CC(C)C[C@H]1C(=O)N[C@H](C(=O)N2CCCCC2)CC(=O)N(C)CC(=O)N[C@@H]([C@@H](C)O)C(=O)N(C)[C@@H](C)C(=O)N[C@@H](COC(C)(C)C)C(=O)N(C)[C@@H](Cc2ccccc2)C(=O)N1C [DP-531] ([Sar]T[NMeA]S(tBu)[NMeF][NMeL]D-Piperidide; lactam N-7)	microsomal CLint at 1 uM	42
CC[C@H](C)[C@@H]1NC(=O)[C@H](Cc2ccccc2)N(C)C(=O)CN(C)C(=O)C[C@@H](C(=O)N2CCCCC2)NC(=O)[C@H](C(C)C)N(C)C(=O)[C@H](COC(C)(C)C)NC(=O)[C@H](CC(C)C)N(C)C(=O)[C@H](Cc2ccccc2)N(C)C(=O)CN(C)C(=O)[C@H]([C@@H](C)O)NC(=O)[C@H](CC(C)C)N(C)C1=O [DP-168] ([Sar][NMeF]I[NMeL]T[Sar][NMeF][NMeL]S(tBu)[NMeV]D-Piperidide; lactam N-11)	microsomal CLint at 1 uM	85
CC(C)C[C@H]1C(=O)N(C)[C@@H](C(C)C)C(=O)N(C)[C@@H](C)C(=O)N[C@@H](CCCc2ccccc2)C(=O)N(C)[C@@H](C)C(=O)N[C@H](C(=O)N2CCCCC2)CC(=O)N(C)[C@@H](C)C(=O)N[C@@H]([C@@H](C)O)C(=O)N(C)[C@@H](C)C(=O)N[C@@H](C)C(=O)N(C)[C@@H](Cc2ccccc2)C(=O)N1C [DP-735] ([NMeA]T[NMeA]A[NMeF][NMeL][NMeV][NMeA][hhPhe][NMeA]D-Piperidide; lactam N-11)	microsomal CLint at 1 uM	88
